Just for reference, patent EP1129112B1 is where these values come from.

Target: recombinant mPBR (Mus musculus, UniProt P50637)
Construct: inferred from vector pET15b with insertion at NdeI) (N); whole bacteria or bacterial membranes
Test: 3H-PK 11195 radioligand binding to IPTG-induced recombinant PBR in E. coli (Scatchard analysis)
Conditions: 3H-PK 11195 binding, IPTG-induced E. coli transfected with mouse PBR cDNA
readout-name: pKd
pKd (log units): -log10 of the concentration in mol/L.

Ask: Write down the reported pKd of CCC(C)N(C)C(=O)c1cc2ccccc2c(-c2ccccc2Cl)n1 (stereo not shown) [PK 11195] , test system: recombinant mPBR (Mus musculus, UniProt P50637).
Reply: 8.96
